test system: SF-295 CNS; assay: NCI-60 one-dose screen, 48 h (100 = growth as untreated, 0 = no growth, -100 = all killed); conditions: 10 µM unless noted
About 83,000 compounds went through this panel and 20% of them were active in at least one assay; those are over-represented in the sample as a whole.
Quantity: growth (%)

molecule=O=c1c2c(=NCCN3CCCC3)cc3c(=O)n(CCCN4CCOCC4)c(=O)c4c(-c5ccc(CN6CCCC6)cc5)cc(c(O)n1CCCN1CCOCC1)c2c4-3 obs_value=-12.5
molecule="COc1ccc(C2=NOC(CC(=O)N(CCO)CCO)C2)cc1OC1CCCC1 (stereo not drawn)" obs_value=97.1
molecule="CC1SC(c2ccc(Cl)cc2)N(CCc2cccs2)C1=O (stereo not drawn)" obs_value=-2.2
molecule="Cc1c(C)n(CC(O)CNC2CCCCC2C)c2ccccc12 (stereo not drawn)" obs_value=-45.7
molecule=CCCCCCCCCCCCSC1=CC(=O)C=CC1=O obs_value=51.8
molecule=Cn1c2c(cc(S(=O)(=O)c3ccccc3)c1=O)CCc1c-2cnn1-c1ccccc1Cl obs_value=87.9
molecule="COc1ccc(/C=N/OCC(O)CNCc2ccccc2)cc1OC1CCCC1 (stereo not drawn)" obs_value=103
molecule="COC1(OC)C2(Cl)C=C(c3ccccc3)C1(Cl)C(Cl)=C2Cl (stereo not drawn)" obs_value=93.9

###

test system: SNB-19 CNS; test: NCI-60 one-dose screen, 48 h; details: 10 µM unless noted
About 83,000 compounds went through this panel and 20% of them were active in at least one assay; those are over-represented in the sample as a whole. Active and inactive are the calls of the source. How the source made its calls: active means growth percent below 10; inactive means the rest.
Labels: active, inactive

compound="CN1CCc2cccc3c2C1Cc1ccc(O)c(O)c1-3 (stereo not given)" cat=inactive
compound=C=CC[P+](c1ccccc1)(c1ccccc1)c1ccccc1 cat=inactive
compound=O=C(Nc1nc2ccccc2[nH]1)C(=O)Nc1nc2ccccc2[nH]1 cat=inactive
compound=CCN1CCN(c2ccc(Nc3ncc4ccc5ncn(C(C)C)c5c4n3)nc2)CC1 cat=active
compound=O=C1/C(=C/c2ccc(Cl)cc2)CN(Cc2cn(CCCNc3ccnc4cc(Cl)ccc34)nn2)C/C1=C\c1ccc(Cl)cc1 cat=active

###

system: M14 melanoma; assay: NCI-60 one-dose screen, 48 h; details: 10 µM unless noted
This is part of a sample that, as a whole, favours compounds with a hit. Of some 83,000 tested, about 20% had one in any assay. Active and inactive are the calls of the source. Rule for the calls: active = growth percent below 10; inactive = the rest.
Classes used: active, inactive

molecule=CCOC(=O)c1c(Cl)c2c(n1Cc1ccc(OC)cc1)-c1oncc1CCC2 cat=inactive
molecule=Cc1ccc(NS(=O)(=O)c2ccc(-c3cnc(C4CC4)o3)cc2)cc1 cat=active
molecule=COc1cc2cc(Oc3ccc(NC(=O)Nc4cccc(C(F)(F)F)c4)cc3)c(C)nc2cc1OCCN1CCCCC1 cat=active
molecule=O=C1C(N2CCOCC2)=Cc2cccc3cccc1c23 cat=inactive
molecule="COc1ccc(C2CC(c3cc(OC)c(OC)c(OC)c3)=NN2c2ccc(S(N)(=O)=O)cc2)cc1 (stereo not given)" cat=inactive
molecule="O=C1CC2c3cc(-c4cc5ccccc5o4)ccc3CCN2C(=O)N1c1ccccc1 (stereo not given)" cat=inactive
molecule=COc1ccc(NC(=O)c2ccc3c(c2)nc(-c2ccc(Cl)cc2)n3-c2cc(C(C)(C)C)[nH]n2)cc1 cat=inactive
molecule=c1ccc2c(c1)oc1cc3c(cc12)nnc1cccn13 cat=inactive
molecule=Clc1ccc(C2=Nc3cccc4cccc(c34)N2)cc1Cl cat=inactive
molecule=C=C1CC[C@@H]2[C@@](C)(CCC[C@]2(C)C(=O)O)[C@@H]1CC[C@H](CO)CCO cat=inactive

###

system: HOP-92 NSCLC; assay: NCI-60 one-dose screen, 48 h; settings: 10 µM unless noted
This is part of a sample that, as a whole, favours compounds with a hit. Of some 83,000 tested, about 20% had one in any assay. Calls of active or inactive are those of the source. How the source made its calls: active means growth percent below 10; inactive means the rest.
Outcomes: 1 (yes) = active, 0 (no) = inactive

compound=Nc1cccc2c(=S)c3ccccc3[nH]c12 cat="0 (no)"
compound=O=c1c2cc(F)ccc2oc2c(NCCNCCO)nc3ccccc3c12 cat="0 (no)"
compound=NS(=O)(=O)c1cc(Br)c2c(c1)S(=O)(=O)NCN2 cat="0 (no)"
compound=O=C(O)C[C@H](O)C[C@H](O)/C=C/c1c(C2CC2)nc2ccccc2c1-c1ccc(F)cc1 cat="1 (yes)"
compound=O=C(N/N=C(\CS(=O)(=O)c1ccccc1)c1cc2ccccc2oc1=O)c1ccccc1 cat="0 (no)"
compound=COC(=O)c1c2c(c(C)[n+]([O-])c1C)C(=O)C=C(NCc1cccc(OC)c1)C2=O cat="1 (yes)"
compound=COc1ccc(NS(=O)(=O)c2ccc(-c3cnc(C4CC4)o3)cc2)cc1 cat="0 (no)"
compound=COc1ccc(/C=C2\Oc3cc(C)c(Cl)cc3C2=O)cc1OC cat="0 (no)"
compound=Nc1nc(-c2ccnc(Cl)c2)nn1-c1nc2ccccc2s1 cat="0 (no)"
compound="O=C1C2CC3C(CC2C(=O)[N]1[Sn]([c]1ccccc1)([c]1ccccc1)[c]1ccccc1)C1(Cl)C(Cl)=C(Cl)C3(Cl)C1(Cl)Cl (stereo unspecified)" cat="1 (yes)"
compound=Cc1ccccc1-n1nnc(C(=O)Nc2ccc(-c3ccccc3)cn2)c1C cat="0 (no)"
compound=COc1cc(-c2nc(Nc3nc4ccccc4[nH]3)nc(N)c2C#N)cc(OC)c1OC cat="0 (no)"
compound=COc1ccc(-n2c(SCc3cc(OC)c(OC)c(OC)c3)nc3ccc(C)cc3c2=O)c(OC)c1 cat="0 (no)"
compound=Cc1cc(C)c(S(=O)O)c(C)c1 cat="0 (no)"
compound=CCOc1ccc(/C=N\N2CCCCCC2)cc1OCC cat="0 (no)"
compound=O=C(Nc1ccc(Cl)c(Cl)c1)NC(CO)(CO)CO cat="0 (no)"
compound=O=c1[nH]c(=O)n(Cc2ccc(F)cc2)cc1F cat="0 (no)"
compound=Cc1ccc(-c2c3c(N)c4c(nc3nc3c2c(C)nn3-c2ccccc2)CCCC4)cc1 cat="0 (no)"
compound=ONc1nc(NO)c2[nH]cnc2n1 cat="0 (no)"
compound=CCOc1ccc(-c2cnnn2-c2nonc2-n2cccc2)cc1 cat="0 (no)"
compound=COC(=O)[C@@]12CC[C@@H](C)[C@]3(C[C@@H](c4ccoc4)OC3=O)[C@H]1CC[C@@H]1O[C@@]12C cat="0 (no)"
compound=Cc1nc2cc(Nc3nc(Nc4ccc(F)cc4)nc(-c4cccs4)n3)ccc2n1Cc1ccccc1 cat="0 (no)"
compound=c1ccc(-c2n(Cc3ccc4ccccc4n3)c3ccccc3[n+]2Cc2ccc3ccccc3n2)cc1 cat="1 (yes)"
compound=Cc1nn(-c2ccccc2)c2nc3nc4c(c(N)c3c(-c3ccc(Cl)cc3)c12)CCCC4 cat="0 (no)"
compound=COc1ccc(-c2cc(=O)oc3c4c(ccc23)OCN(Cc2ccc(F)cc2)C4)cc1 cat="0 (no)"
compound=CCOC(=O)n1cc(C2=C(c3cn(C)c4ccccc34)COC2=O)c2ccccc21 cat="0 (no)"
compound=Cc1nc2cc(Nc3nc(Cl)nc(Nc4ccc(F)cc4)n3)ccc2n1Cc1ccccc1 cat="0 (no)"
compound="Cc1c(C)n(CC(O)CNC2CCCCC2C)c2ccccc12 (stereo unspecified)" cat="1 (yes)"
compound="COc1cc(/C=C/C(=O)C2=C(/C=C/c3ccc(O)c(OC)c3)NC(=O)NC2c2ccc(O)c(OC)c2)ccc1O (stereo unspecified)" cat="0 (no)"
compound=Cc1nc2cc(Nc3nc(Nc4ccc(F)cc4)nc(N4CCN(C)CC4)n3)ccc2n1Cc1ccccc1 cat="1 (yes)"
compound=Cc1cc(Cl)c2c(Cl)ccc(Cl)c2n1 cat="0 (no)"
compound="COC1(OC)C2(Cl)C=C(c3ccccc3)C1(Cl)C(Cl)=C2Cl (stereo unspecified)" cat="0 (no)"
compound=O=S(=O)(Nc1ccc(Cl)c(Cl)c1)c1ccc(-c2cnc(C3CC3)o2)cc1 cat="0 (no)"
compound="COc1cc(/C=N/NC(=O)c2cnn3c2NC(c2ccccc2)C3)ccc1OC1CCCC1 (stereo unspecified)" cat="0 (no)"
compound="O=[N+]([O-])c1cc2c(cc1Br)C1C(C3C2C(Cl)(Cl)C(Cl)=C(Cl)C3(Cl)Cl)C(Cl)(Cl)C(Cl)=C(Cl)C1(Cl)Cl (stereo unspecified)" cat="0 (no)"
compound="O=C(NC1CC1)c1cc2n(n1)CC(c1ccccc1)N2 (stereo unspecified)" cat="0 (no)"
compound=N#Cc1c(-c2cccc(F)c2)cc(-c2ccc(Br)s2)[nH]c1=O cat="0 (no)"
compound=CCN1CCN(c2nc3ccccc3c3c(=O)c4cc(F)ccc4sc23)CC1 cat="0 (no)"
compound="Cc1ccc(S(=O)(=O)N2CCc3ccc(O)c4c3C2CCc2ccccc2-4)cc1 (stereo unspecified)" cat="0 (no)"
compound=C(=C\c1ccccc1)/CN1CCN(C(c2ccccc2)c2ccccc2)CC1 cat="0 (no)"
compound=C[C@@H](Oc1cc(-c2cnn(C3CC4(CNC4)C3)c2)cnc1N)c1c(Cl)ccc(F)c1Cl cat="1 (yes)"
